Data origin, for the record: paper PMC8270315

Overview of reported pKi across a group of molecules:
# system-name: σ2R (Rattus norvegicus)
# Construct: from tissue; host or cells: liver membranes of Sprague-Dawley rats (animals from ENVIGO RMS S.R.L.)
# Sequence (Q5U3Y7 whole entry): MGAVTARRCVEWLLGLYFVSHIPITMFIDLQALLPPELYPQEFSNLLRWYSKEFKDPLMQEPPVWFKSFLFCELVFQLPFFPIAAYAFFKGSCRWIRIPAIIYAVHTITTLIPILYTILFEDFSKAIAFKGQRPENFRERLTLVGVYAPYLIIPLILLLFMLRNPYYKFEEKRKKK
# assay-details: σ2R radioligand binding assay, [3H]DTG, rat liver membranes
pKi: −log10 of the molar value.

Some molecules with known pKi results, for comparison:
> print(dat)
                                item.smiles  data.value
1  O=C(c1ccc(OCCCCn2ccnc2)cc1)N1CCN(Cc2ccccc2)CC1      < 5.00
2  O=C(CCCc1ccc(OCCCCn2ccnc2)cc1)N1CCN(Cc2ccccc2)CC1        5.33
3  O=C(Cc1ccc(OCCCCn2ccnc2)cc1)N1CCN(Cc2ccccc2)CC1      < 5.00

Task item: Which value of pKi has been reported for O=C(CCc1ccc(OCCCCn2ccnc2)cc1)N1CCN(Cc2ccccc2)CC1 in the records?
Reply: < 5.00
